Where these numbers come from: a melting point compilation (Tetko et al.; mined from patent text by program, amines drawn as free bases though some values may be those of a salt)

Overview of reported melting point across a group of molecules:

Recorded melting point, per entry:
# MOLECULE, melting point
records = [
    ("CCCn1nc2c(N)nc3ccccc3c2c1CCCCN1C(C)=NOC12CCCC2", "101 to 105 °C"),
    ("CCc1cccc2c(C(CO)NC=O)c[nH]c12 (centres undefined)", "195 to 197 °C"),
    ("COc1ccc(Cl)cc1C(=O)CCCCCl", "52 to 54 °C"),
]

Can you look up the measured melting point of S=C1Nc2ccccc2C1(c1c[nH]c2ccccc12)C1CNc2ccccc21 (centres undefined) for me?
> 260 °C

Can you look up the measured melting point of COCOc1c(C)c(OC)c(OCOC)c(CCCCCc2c(OC)c(OCOC)c(C)c(OC)c2OCOC)c1OC for me?
83 to 84 °C

Can you look up the measured melting point of Nc1cccc(NC(=O)C(=O)N2CCC(Cc3ccc(F)cc3)CC2)c1 for me?
117 to 120 °C

Can you look up the measured melting point of COc1cccc(CNc2ncnc3c2sc2nc(N4CCCC4)c4c(c23)CC(C)(C)OC4)c1OC for me?
166 to 168 °C

Can you look up the measured melting point of CCNC(=O)Oc1ccc(-c2nn(C3CCCC3)c3c(F)cccc23)cc1 for me?
159 to 160 °C

Can you look up the measured melting point of CCCSc1nc(NC2CC2c2cccc(N)c2)c2nnn(C3CC(O)C(O)C3O)c2n1 (centres undefined) for me?
105 to 107 °C

###

Overview of reported melting point across a group of molecules:

Recorded melting point, per entry:
# MOLECULE, ATTRIBUTE MEASURED, ASSAY VALUE
records = [
    ("CCOC(=O)C1=C(COc2cccnc2)NC(COc2cccnc2)=C(C(=O)OCC)C1c1cccc([N+](=O)[O-])c1", "melting point", "206 to 208 °C"),
    ("CCOC(Cc1ccccc1)=C1SC(=S)N(c2ccccc2)C1=O", "melting point", "119 to 121 °C"),
    ("O=C(c1ccccc1)n1cc(-c2ccccc2)c2ccccc21", "melting point", "154 to 156 °C"),
    ("COc1nc(OC)c(C=O)c(N(C)C)n1", "melting point", "150 °C"),
    ("Nc1cc(N2C(=O)CCc3ccccc32)ccn1", "melting point", "204 to 205 °C"),
    ("CC1(C)Oc2ccc([N+](=O)[O-])cc2C(n2ccccc2=O)=C1CNC=O", "melting point", "170 °C"),
    ("O=C(O)CCCCCCOc1ccc(OCc2ccccc2)cc1", "melting point", "118 to 119 °C"),
    ("COc1cc(OC)nc(Oc2cccnc2C=O)n1", "melting point", "76 °C"),
    ("O=C(N[C@H](Cc1cccc(OC(F)(F)C(F)F)c1)[C@@H](O)c1csc(-c2ccccc2)n1)c1cccc2c1C=CCCC2 (racemic)", "melting point", "137 to 138 °C"),
    ("CC(=O)CC(=O)NC1=Nc2ccc(Cl)cc2C(c2ccccc2)=NCC1", "melting point", "158 to 159 °C"),
]

Can you look up the measured melting point of CC(C)c1ccccc1NC#N for me?
75 to 77 °C

Can you look up the measured melting point of NS(=O)(=O)C1(c2ncc(C(F)(F)F)cc2Cl)C=CC(Cl)=CC1Cl (centres undefined) for me?
125 to 126 °C

Can you look up the measured melting point of O=c1[nH]c2cc(Cl)ccc2c(O)c1-c1ccc(Br)cc1 for me?
> 350 °C

Can you look up the measured melting point of O=[N+]([O-])c1cccc(-c2nc(Nc3cccc(Cl)c3)c3cc[nH]c3n2)c1 for me?
> 250 °C

###

Overview of reported melting point across a group of molecules:

# MOLECULE, ASSAY VALUE
rows = [
    ("O=C1c2ccccc2C(=O)c2cc(S(=O)(=O)NCCCN3CCOCC3)ccc21", "151 to 156 °C"),
    ("CCCN(C1CC(C)(C)Oc2ccc(OCCOC)cc21)S(=O)(=O)CC (centres undefined)", "78 to 80 °C"),
    ("CCOC(=O)N(c1ccc(Cl)cc1)c1ccccc1-n1nc(C(=O)O)nc1CCl", "190 to 192 °C"),
]

Can you look up the measured melting point of CC(C)(C)OC(=O)NCCC(=O)NCc1cccc2c1CN(C1CCC(=O)NC1=O)C2=O (centres undefined) for me?
203 to 205 °C

Can you look up the measured melting point of CCOC(=O)C=C(C)NC(=O)OCc1ccc(Cl)c(Cl)c1 for me?
83.5 to 85 °C

Can you look up the measured melting point of OCCNC(=S)NC(Cc1cccc2ccccc12)=Nc1ccccc1 for me?
155 to 156 °C

Can you look up the measured melting point of CC(C)C(=O)N[C@H]1C[C@H](C(=O)O)Nc2cc(Cl)cc(Cl)c21 (relative stereo) for me?
197 to 198 °C

Can you look up the measured melting point of COc1cc(-c2nc3ccccc3n2Cc2ccc(Cl)cc2)cc(OC)c1OC for me?
169 °C

Can you look up the measured melting point of COc1cc2c(Oc3ccc(Cl)cc3F)ncnc2cc1OCc1ccccc1 for me?
179 to 180 °C

###

Overview of reported melting point across a group of compounds:

Recorded melting point, per entry:
# COMPOUND, melting point
records = [
    ("CC(C)(C)C(=O)OCOC(=O)[C@H]1[C@@H]2CC[C@@](N)(C(=O)O)[C@@H]21", "205 to 206 °C"),
    ("CNc1nc(Nc2ccc(CCNC(=O)OC(C)(C)C)cc2)ncc1[N+](=O)[O-]", "70 to 71 °C"),
    ("O=Cc1ccc(OCc2ccccn2)cc1O", "89.2 to 89.7 °C"),
    ("Cc1nc(N2CCN(CCc3c[nH]c4ccccc34)C2=O)sc1C(=O)NCc1ccccc1", "215 to 217 °C"),
    ("NC(=O)N1C(=O)Cc2cc(C(=O)c3ccccc3)ccc21", "210 to 211 °C"),
]

Can you look up the measured melting point of COc1cccc2c1C13CCN(C(=O)OCC(Cl)(Cl)Cl)C(C2)C1(C(=O)OCC(Cl)(Cl)Cl)CCC(=O)C3 (centres undefined) for me?
115 to 116 °C

Can you look up the measured melting point of CCCCC(Cc1ccc(OCCNC(=O)c2ccc(Oc3ccccc3)nc2)cc1)C(=O)O (centres undefined) for me?
124 to 125 °C

Can you look up the measured melting point of O=C(O)c1ccc(-c2cnc3c(c2)N(Cc2cc(F)ccc2F)CCN3)cc1 for me?
> 300 °C

Can you look up the measured melting point of Oc1cc(Br)c2oc(-c3ccc(O)c(F)c3)nc2c1 for me?
265 to 267 °C

###

ATTRIBUTE MEASURED: melting point (°C)

# COMPOUND, ASSAY VALUE
records = [
    ("CC(C)(C)NC(=O)Oc1ccc(-c2nn(C3CCCC3)c3c(F)cccc23)cc1", 157),
]

[1] O=C1C(=O)N2CCCc3cccc1c32
[2] CCCCc1ccc(-c2cnc(-c3ccc(C#N)cc3)nc2)cc1
// select label with min value of measured melting point from [ 1 , 2 ] Give the chosen item's label as your response.
2

###

ATTRIBUTE MEASURED: melting point

Recorded melting point, per entry:
# COMPOUND, melting point
measured = [
    ("O=C(O)c1cc(C(F)(F)F)ccc1I", "171 to 172 °C"),
    ("CC(C)(C)OC(=O)NCCC(=O)N[C@@H](CC(=O)OCc1ccccc1)C(=O)NCCc1ccc(OCC(=O)OCc2ccccc2)cc1", "123 to 124 °C"),
    ("CCCc1c(C(=O)N(C)C)c2ccc(C(N)=O)cc2n1Cc1ccccc1Cl", "213 to 214 °C"),
    ("Cc1cc(=O)c(Oc2ccccc2C)c(-c2ccc(S(C)(=O)=O)cc2)o1", "168 °C"),
    ("CCCc1nc2c(N)nc3ccccc3c2n1CCCC(=O)OCC", "154 to 156 °C"),
    ("O=c1cc2c(nn1Cc1ccc(Cl)cc1)-c1cc(Br)sc1SCC2", "152 to 154 °C"),
    ("Clc1cccc(Cl)c1C1CCN(Cc2[nH]c3ccccc3c2-c2ccccc2)CC1", "162 to 164 °C"),
    ("C[C@H]1C[C@@H](Oc2cccc(NC(=O)c3ccc(F)cc3Cl)c2)CCN1C (relative stereo)", "152 °C"),
    ("C#CCN(c1ccc(C(=O)NC(CCC(=O)NC(CCC(=O)O)C(=O)O)C(=O)O)cc1)C1CCc2cc3nc(CO)[nH]c(=O)c3cc21 (stereo not drawn)", "172 °C"),
    ("CCc1cn2c(N)c(Cl)cc(C(=O)NC3CCN(CCCOC)CC3)c2n1", "179 °C"),
]

Can you look up the measured melting point of COC(=O)CC(c1ccccc1)N1C(=O)c2ccccc2C1=O (stereo not drawn) for me?
75 to 76 °C

Can you look up the measured melting point of CCOC(=O)c1cn(C(C)C(=O)c2ccccc2)c2nc(-c3ccccc3)c(C)n2c1=O (stereo not drawn) for me?
177 to 178 °C

Can you look up the measured melting point of COc1ccc(N2C(=O)Cc3ccccc32)cc1F for me?
133 to 136 °C

Can you look up the measured melting point of O=C(Nc1ccc2c(c1)c1ccccc1n2CCO)c1ccccc1Cl for me?
168 to 169 °C

Can you look up the measured melting point of O=CN(O)C(Cc1cccc(CC(=O)O)c1)CS(=O)(=O)c1ccc(Oc2ccc(OC(F)(F)F)cc2)cc1 (stereo not drawn) for me?
138 to 140 °C

Can you look up the measured melting point of C=CCc1cc2c(C)cc(=O)oc2c(C)c1O for me?
166 to 167 °C

Can you look up the measured melting point of CCOC(=O)Cc1c(-c2ccccc2)c2cc(CO)c(CO)cc2oc1=O for me?
130 to 131 °C

Can you look up the measured melting point of COc1cc2c3c(Br)cc(OC)c(OC)c3n(C(=O)c3ccc(C(C)(C)C)cc3)c2cc1OC for me?
136 to 138 °C

Can you look up the measured melting point of CCCNCCCOc1ccc(-c2ccc(C(=O)O)cc2)cc1-c1ccc2c(c1)C(C)(C)CCC2(C)C for me?
226 °C

Can you look up the measured melting point of Cc1cc(C#N)cc(C(=O)Nc2cccc(F)c2)n1 for me?
139 °C
